Test system: NCI-H23 lung
Assay: NCI tumour cell line growth inhibition, 48 h
List of TGI values.

Known TGI results, listed for orientation:
SMILES STRUCTURE | ASSAY VALUE
C1CN2CCN3CCN4CCN1[P+]243 | > 100 µM
Cn1ccc(C(=O)NCCN(CCNC(=O)c2ccn(C)c(=O)c2O)CCNC(=O)c2cccc(=O)n2O)c(O)c1=O | > 100 µM

Now examine the next entry.
[Q] If you can, please state the reported TGI value of `Cc1ccc(NC(=O)CCc2cc(C(C)(C)C)nc(=S)[nH]2)cc1C` .
[A] > 100 µM

###

Test system: SNB-19 CNS
Experiment: NCI tumour cell line growth inhibition, 48 h
Where a SMILES comes first, the peptide text is derived from it. The star is where a group is joined. Cbz = O=C(OCc1ccccc1)*; CH2Cl = ClC*
PARAMETER: TGI

COMPOUND | TEST TARGET | ASSAY VALUE
Cc1[nH]c2ccccc2c1C(=O)/C=C/c1ccccc1O | SNB-19 CNS | > 100 µM

[Q] If you can, please state the reported TGI value of `O=C1/C(=C/c2cccc(Cl)c2Cl)N=C(c2ccccc2)N1C1CC1` .
[A] 33.2 µM

[Q] If you can, please state the reported TGI value of `Nc1nc(SC/C=C/c2ccccc2)c2[nH]cnc2n1` .
[A] > 100 µM

[Q] If you can, please state the reported TGI value of COc1ccc(C(OCC2OC(n3cc(C)c(=O)[nH]c3=O)CC2n2cc(Cn3cc(Cl)c(=O)[nH]c3=O)nn2)(c2ccccc2)c2ccccc2)cc1 (stereo not drawn) .
[A] > 100 µM

[Q] If you can, please state the reported TGI value of CN=C1CC2c3cc(OC)c(OC)cc3CCN2C2=C1C(=O)CC(C)(C)C2 (stereo not drawn) .
[A] > 100 µM

[Q] If you can, please state the reported TGI value of `COc1cc(-c2cc(-c3cc4c([nH]c5ccccc54)c(-c4cc(OC)c(OC)c(OC)c4)n3)cc(-c3ccccc3)n2)cc(OC)c1OC` .
[A] > 100 µM

[Q] If you can, please state the reported TGI value of `CCCNC(=S)NNC(=O)CSc1nc(-c2ccccc2)c(-c2ccccc2)[nH]1` .
[A] > 100 µM

[Q] If you can, please state the reported TGI value of `CC1(C)N=C(N)N=C(N)N1c1ccc(CCc2ccccc2)cc1` .
[A] > 41.1 µM

[Q] If you can, please state the reported TGI value of `N#C/C1=C(\N)CCSSSC1` .
[A] > 100 µM

[Q] If you can, please state the reported TGI value of O=C1/C(=C/c2ccc3c(c2)OCO3)SC2C=Nc3ccccc3N12 (stereo not drawn) .
[A] > 100 µM

[Q] If you can, please state the reported TGI value of CC(C)CC(NC(=O)OCc1ccccc1)C(=O)NC(Cc1ccccc1)C(=O)CCl (stereo not drawn) (Cbz-Leu-Phe-CH2Cl; configuration not given here) .
[A] > 56.8 µM

[Q] If you can, please state the reported TGI value of COc1cc(NS(C)(=O)=O)ccc1Nc1c2ccccc2nc2c1[nH]c1ccc(NC3OC(CO)C(O)C(O)C3O)cc12 (stereo not drawn) .
[A] 1.46 µM

[Q] If you can, please state the reported TGI value of C#C[C@]1(O)CCC2C3CCc4cc(O)ccc4C3CC[C@@]21C (stereo partly drawn) .
[A] > 100 µM

###

Test system: NCI-H226 lung
Assay: NCI tumour cell line growth inhibition, 48 h
Where a SMILES comes first, the peptide text is derived from it. The star is where a group is joined. Cbz = O=C(OCc1ccccc1)*; CH2Cl = ClC*
PARAMETER: TGI

Known TGI results, listed for orientation:
COMPOUND | TEST TARGET | ASSAY VALUE
CC(=O)Oc1c2c(c(O)c3ccccc13)C(n1cnc3c(ncn3C3OC(CO)C4OC(C)(C)OC43)c1=N)CCC2 (stereo unspecified) | NCI-H226 lung | 52.8 µM
COc1ccc(-c2nn(-c3ccc(NC(=O)c4ccc(Cl)c(Cl)c4)cc3)cc2-c2ccncc2)cc1Cl | NCI-H226 lung | > 50 µM
COc1cc(NCc2ccc3nc(N)nc(N)c3c2C)cc(OC)c1OC (tested in a mixture with another compound) | NCI-H226 lung | 52.8 µM

Now examine the next entry.
[Q] Requested read-out TGI, target or system NCI-H226 lung, entry CC(C)CC(NC(=O)OCc1ccccc1)C(=O)NC(Cc1ccccc1)C(=O)CCl (stereo not drawn) (Cbz-Leu-Phe-CH2Cl; configuration not given here)
[A] 3.98 µM

###

System: BT-549 breast
Test: NCI tumour cell line growth inhibition, 48 h
List of TGI values.

COMPOUND | TGI
COc1cc(F)ccc1-c1ncnc(Nc2cccc(CS(C)(=N)=O)c2)n1 (stereo not drawn) | > 100 µM
CCOC(=O)CC[C@H](NC(=O)[C@H](N)Cc1ccc(N(CCCl)CCCl)cc1)C(=O)OCC | > 65.3 µM

Now examine the next entry.
[Q] If you can, please state the reported TGI value of `CCOC(=O)c1nnc2c(C(=O)OCC)c3ccccc3n2c1N` .
[A] > 100 µM

###

Test system: A498 renal
Experiment: NCI tumour cell line growth inhibition, 48 h
PARAMETER: TGI

[Q] Requested read-out TGI, target or system A498 renal, entry `CN(C)CC[PH+](c1ccccc1)c1ccccc1.CN(C)CC[PH+](c1ccccc1)c1ccccc1.[Cl-].[Pd+2]`
[A] > 100 µM

[Q] Requested read-out TGI, target or system A498 renal, entry O=C1/C(=C/c2ccc3c(c2)OCO3)SC2C=Nc3ccccc3N12 (stereo not given)
[A] > 100 µM

[Q] Requested read-out TGI, target or system A498 renal, entry CCOC(=O)NC(Nc1ccc(S(=O)(=O)Nc2nc(C)cc(C)n2)cc1)(C(=O)OCC)C(F)(F)F (stereo not given)
[A] > 100 µM

###

System: OVCAR-3 ovarian
Assay: NCI tumour cell line growth inhibition, 48 h
PARAMETER: TGI (µM)
Response body: numeric value in µM, unit text excluded.

SMILES STRUCTURE | TGI / µM
Cc1nc2c(nc1C)-c1[nH]c3c(c1C(=O)C2=O)CCCC3=O | 2.07

[Q] If you can, please state the reported TGI value of `CCOC(=O)CC[C@H](NC(=O)[C@H](N)Cc1ccc(N(CCCl)CCCl)cc1)C(=O)OCC` .
[A] 30.2

###

System: HOP-62 NSCLC
Experiment: NCI tumour cell line growth inhibition, 48 h
PARAMETER: TGI

Known TGI results, listed for orientation:
MOLECULE | TGI
COc1ccc(CC2NCCc3c2[nH]c2ccccc32)cc1 (stereo not given) | > 100 µM
O=C(c1ccccc1)c1cc2ccccc2o1 | > 100 µM
COc1ccc2cc(/C=N/NC(=O)Nc3ccccc3)ccc2c1 | > 100 µM
CN(C)C(n1cc2c(c1)-c1ccc(Cl)cc1C(c1ccccc1F)=NC2)n1cc2c(c1)-c1ccc(Cl)cc1C(c1ccccc1F)=NC2 | > 100 µM
NNC(=O)c1n[nH]nc1C(=O)NN | > 100 µM

[Q] If you can, please state the reported TGI value of `COc1ccc(-[n+]2nc(S(=O)(=O)O)c(/C=C/c3ccc(N(C)C)cc3)cc2C#N)cc1` .
[A] > 100 µM

[Q] If you can, please state the reported TGI value of `CC1c2c(Cl)nc3ccccc3c2Oc2c1c(Cl)nc1ccccc21` .
[A] > 100 µM

[Q] If you can, please state the reported TGI value of COC(=O)C(Cc1nc2ccc(Cl)cc2[nH]c1=O)/C(=N\N)C(=O)Nc1cc(C)c(Cl)cc1S(=O)(=O)O (stereo not given) .
[A] > 100 µM

[Q] If you can, please state the reported TGI value of COC(=O)C1=C(C(=O)NNc2ccccc2)N(c2cccnc2Cl)C(c2ccccc2)=CC1c1ccccc1 (stereo not given) .
[A] > 100 µM

[Q] If you can, please state the reported TGI value of `COC1(OC)C(N(C)C)=C(Cl)C(=O)/C1=C/C=O` .
[A] > 100 µM

[Q] If you can, please state the reported TGI value of `COc1ccc(NC(=O)/C(Cc2cc(=O)oc3cc(O)ccc23)=N\NC(C)(C)C)c(OC)c1` .
[A] > 100 µM

[Q] If you can, please state the reported TGI value of COc1cc2c(c(OC)c1OC)-c1ccc(SC)c(=O)cc1C(NC=O)CC2 (stereo not given) .
[A] > 90.8 µM

###

List of TGI values.
System: SNB-75 CNS
Experiment: NCI tumour cell line growth inhibition, 48 h
Where a SMILES comes first, the peptide text is derived from it. The star is where a group is joined. Cbz = O=C(OCc1ccccc1)*

COMPOUND | ASSAY VALUE
O=C(O)CCC(NC(=O)OCc1ccccc1)C(=O)NC(Cc1cnc[nH]1)C(=O)O (stereo not drawn) (Cbz-Glu-His-OH; configuration not given here) | > 100 µM

[Q] If you can, please state the reported TGI value of CCOC(=O)NC(Nc1ccc(S(=O)(=O)Nc2nc(C)cc(C)n2)cc1)(C(=O)OCC)C(F)(F)F (stereo unspecified) .
[A] > 100 µM

[Q] If you can, please state the reported TGI value of `Fc1cc(-c2cc(-c3ccccc3)no2)c(Cl)cc1Cl` .
[A] > 54.4 µM

[Q] If you can, please state the reported TGI value of `Cc1cc(S(=O)(=O)Nc2n[nH]c(N)n2)c(SCC(=O)O)cc1Cl` .
[A] > 10 µM

[Q] If you can, please state the reported TGI value of CN(C)CCCC12CCCCC1=Nc1ccccc12 (stereo unspecified) .
[A] > 100 µM

[Q] If you can, please state the reported TGI value of `O=C1Nc2ccccc2/C1=N\[O-].O=C1Nc2ccccc2/C1=N\[O-].[Cu+2]` .
[A] > 100 µM
